Biological target: α2AAR (Homo sapiens, UniProt P08913)
Construct: host or cells: HEK293 (membranes)
Sequence (P08913 1-465): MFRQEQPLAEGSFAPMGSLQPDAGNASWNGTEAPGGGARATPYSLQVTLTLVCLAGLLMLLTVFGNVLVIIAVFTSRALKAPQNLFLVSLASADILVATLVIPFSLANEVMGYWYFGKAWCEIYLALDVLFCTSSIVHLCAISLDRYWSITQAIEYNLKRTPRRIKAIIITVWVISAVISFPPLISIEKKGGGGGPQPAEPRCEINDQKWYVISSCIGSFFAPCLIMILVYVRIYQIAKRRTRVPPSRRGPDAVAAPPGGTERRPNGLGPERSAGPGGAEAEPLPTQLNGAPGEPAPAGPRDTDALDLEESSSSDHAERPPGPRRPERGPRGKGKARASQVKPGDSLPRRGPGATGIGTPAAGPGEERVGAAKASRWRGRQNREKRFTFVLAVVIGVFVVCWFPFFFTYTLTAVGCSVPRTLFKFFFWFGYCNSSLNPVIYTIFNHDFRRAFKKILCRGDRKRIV
Assay: α2AAR binding assay ([3H]-RX 821002 radioligand)
Settings: [3H]-RX 821002 0.5 nM, HEK293 membranes; read-out: α2A affinity (Ki)
reported-endpoint: Ki

INSERT INTO assay_data (molecule, system_tested, measured) VALUES
  ('Cc1cccc(C(c2cccc(NC(=O)CCC3CCOCC3)c2)c2c[nH]cn2)c1C (centres unmarked) [compound 101]', 'α2AAR (Homo sapiens, UniProt P08913)', '10 to 50 nM');

Tell me the measured Ki of CNC(=O)Nc1cccc(C(c2c[nH]cn2)c2cccc(C)c2C)n1 (centres unmarked) [compound 146] , please. 10 to 50 nM

Tell me the measured Ki of CONC(=O)c1cccc(CC(NC2=NCCO2)c2ccccc2OC)c1 (centres unmarked) [compound 503] , please. < 10 nM

Tell me the measured Ki of Cc1cccc(C(c2cccc(NC(=O)CC3CCOCC3)c2)c2c[nH]cn2)c1C (centres unmarked) [compound 80] , please. < 10 nM

Tell me the measured Ki of Cc1cccc(C(Cc2ccc(C(=O)NCC(=O)O)cc2)c2c[nH]cn2)c1C (centres unmarked) [compound 229] , please. 50 to 250 nM

Tell me the measured Ki of Cc1cccc(C(Cc2ccc(OCC(=O)O)cc2)c2c[nH]cn2)c1C (centres unmarked) [compound 239] , please. 50 to 250 nM

Tell me the measured Ki of Cc1cccc(C(c2cccc(NC(=O)CC3CCOC3)c2)c2c[nH]cn2)c1C (centres unmarked) [compound 73] , please. 10 to 50 nM

Tell me the measured Ki of Cc1cccc(C(Cc2ccc(C(=O)O)cc2)c2c[nH]cn2)c1C (single isomer, unassigned) [175-B] , please. 50 to 250 nM

* * *

Target: α2AAR (Homo sapiens, UniProt P08913)
Construct: host or cells: HEK293 (membranes)
Sequence (P08913 1-465): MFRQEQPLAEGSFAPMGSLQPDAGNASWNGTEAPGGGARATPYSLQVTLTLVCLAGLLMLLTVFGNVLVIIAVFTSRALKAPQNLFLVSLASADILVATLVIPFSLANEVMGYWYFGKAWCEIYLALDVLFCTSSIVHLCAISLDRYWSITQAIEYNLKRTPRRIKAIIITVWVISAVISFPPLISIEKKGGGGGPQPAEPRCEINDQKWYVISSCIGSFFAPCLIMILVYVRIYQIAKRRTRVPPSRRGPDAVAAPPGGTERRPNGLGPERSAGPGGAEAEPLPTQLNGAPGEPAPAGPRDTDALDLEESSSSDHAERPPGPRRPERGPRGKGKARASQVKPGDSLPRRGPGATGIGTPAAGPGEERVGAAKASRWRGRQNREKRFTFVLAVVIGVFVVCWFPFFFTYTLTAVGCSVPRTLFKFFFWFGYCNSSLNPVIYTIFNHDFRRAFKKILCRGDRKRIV
Assay: α2AAR binding assay ([3H]-RX 821002 radioligand)
Settings: [3H]-RX 821002 0.5 nM, HEK293 membranes; read-out: α2A affinity (Ki)
pKi: −log10 of the molar value.
reported-endpoint: pKi

Use the examples below as a reference point.
INSERT INTO assay_data (compound, measured) VALUES
  ('Cc1cccc(C(Cc2ccc(-c3nnn(C)n3)cc2)c2c[nH]cn2)c1C (stereo not shown)', '7.30 to 8.00'),
  ('Cc1cccc(C(c2cccc(NC(=O)CC3CCCO3)c2)c2c[nH]cn2)c1C (stereo not shown)', '7.30 to 8.00');

Tell me the measured pKi of Cc1cccc(C(OCCOCCNS(C)(=O)=O)c2c[nH]cn2)c1C (stereo not shown) , please. < 6.00

Tell me the measured pKi of Cc1cccc(C(Cc2ccc(NC(=O)CC3CCOCC3)cc2)c2c[nH]cn2)c1C (stereo not shown) , please. > 8.00

Tell me the measured pKi of Cc1cccc(C(Cc2cccc(NS(=O)(=O)CC3CCOCC3)c2)c2c[nH]cn2)c1C (single isomer, unassigned) [112-A] , please. 6.00 to 6.60

Tell me the measured pKi of CONC(=O)c1cccc(CC(NC2=NCCS2)c2cccc(Cl)c2)c1 (stereo not shown) , please. > 8.00

Tell me the measured pKi of Cc1cccc(C(Cc2ccc(C(C)C(=O)O)cc2)c2c[nH]cn2)c1C (single isomer, unassigned) [174-D] , please. 7.30 to 8.00

Tell me the measured pKi of Cc1cccc(C(Cc2ccc(P(=O)(O)O)cc2)c2c[nH]cn2)c1C (stereo not shown) , please. < 6.00

Tell me the measured pKi of Cc1cccc(C(c2cccc(NC(=O)CCC#N)c2)c2c[nH]cn2)c1C (single isomer, unassigned) [43-B] , please. 7.30 to 8.00

Tell me the measured pKi of CONC(=O)c1cccc(C(c2c[nH]cn2)c2cccc(C)c2C)c1F (stereo not shown) , please. 7.30 to 8.00

Tell me the measured pKi of Cc1c(CF)cccc1C(c1cccc(NS(C)(=O)=O)c1)c1c[nH]cn1 (racemic) , please. 7.30 to 8.00

Tell me the measured pKi of Cc1cccc(C(Cc2ccc3c(c2)NCCN3)c2c[nH]cn2)c1C (stereo not shown) , please. 7.30 to 8.00

Tell me the measured pKi of Cc1cccc(C(COCCNS(=O)(=O)CC2CCOCC2)c2c[nH]cn2)c1C (stereo not shown) , please. 7.30 to 8.00

Tell me the measured pKi of Cc1cccc(C(CCCCNS(=O)(=O)C2CCOCC2)c2c[nH]cn2)c1C (stereo not shown) , please. 6.60 to 7.30

Tell me the measured pKi of CNC(=O)NCCOCCOCC(c1c[nH]cn1)c1cccc(C)c1C (single isomer, unassigned) , please. 7.30 to 8.00

Tell me the measured pKi of CNS(=O)(=O)Nc1cccc(C(c2c[nH]cn2)c2cccc(C)c2C)c1 (stereo not shown) , please. 7.30 to 8.00

Tell me the measured pKi of Cc1cccc(C(c2cccc(S(N)(=O)=O)c2)c2c[nH]cn2)c1C (stereo not shown) , please. 7.30 to 8.00

Tell me the measured pKi of COc1ccccc1C(Cc1cccc(NS(=O)(=O)CC2CCOCC2)c1)NC1=NCCS1 (stereo not shown) , please. > 8.00

Tell me the measured pKi of COc1ccccc1C(c1cccc(NC(=O)CC2CCOCC2)c1)c1c[nH]cn1 (stereo not shown) , please. 6.60 to 7.30

Tell me the measured pKi of Cc1cccc(C(c2cccc(NS(=O)(=O)CCN3CCOCC3)c2)c2c[nH]cn2)c1C (stereo not shown) , please. 6.60 to 7.30

Tell me the measured pKi of Cc1cccc(C(Cc2ccc(NC(=O)NC3COC3)cc2)c2c[nH]cn2)c1C (stereo not shown) , please. > 8.00

Tell me the measured pKi of Cc1cccc(C(Cc2ccc3c(c2)OCC(=O)N3)c2c[nH]cn2)c1C (stereo not shown) , please. > 8.00

Tell me the measured pKi of COc1ccccc1C(Cc1cccc(NS(C)(=O)=O)c1)N=C1NCCN1 (stereo not shown) , please. > 8.00
